Assay: Pharmacokinetic analysis of oral gavage administration in female rats
Conditions: female, SD, rat, plasma, po, 12 mg/kg
property.name: Tmax

Task: // Input: CC(=O)[C@H]1CC[C@H]2[C@@H]3CC[C@H]4C[C@H](O[N+](=O)[O-])CC[C@]4(C)[C@H]3CC[C@]12C . Output its Tmax only.
Result: > 8 h

----------
Assay: Pharmacokinetic analysis of oral administration to male rats
Type: in vivo
Conditions: male, SD, rat, plasma, po, 12 mg/kg, oral gavage 12 mg/kg, 6 h, individual rats 1-7, read-out: Blood drug concentration
property.name: concentration at 6 h (ng/mL)
Answers are plain numbers, in ng/mL.

Task: // Input: CC(=O)[C@H]1CC[C@H]2[C@@H]3CC[C@H]4C[C@H](O)CC[C@]4(C)[C@H]3CC[C@]12C [Allopregnanolone, 5α-pregnan-3α-ol-20-one, reference compound] . Output its concentration at 6 h only.
Result: 0

----------
Assay: Pharmacokinetic analysis of oral gavage administration in female rats
Conditions: female, SD, rat, brain, po, 12 mg/kg
Protocol: • Female SD rats (body weight: 200 g to 220 g) were purchased from BEIJING HFK BIOSCIENCE CO., LTD. 60 female SD rats were divided into two groups (Aoral and Boral), with 30 rats per group (5 rats per blood collection time point). The drugs Aoral and Boral were administered via oral gavage administration at 12 mg/kg each (about 1.6 mL of drug solution). […]
property.name: concentration at 8 h (ng/g)
Give bare numbers, in ng/g.

Task: // Input: CC(=O)[C@H]1CC[C@H]2[C@@H]3CC[C@H]4C[C@H](O[N+](=O)[O-])CC[C@]4(C)[C@H]3CC[C@]12C [Compound 1] . Output its concentration at 8 h only.
Result: 1640

----------
Experiment: Pharmacokinetic analysis of oral administration to male rats
Type: in vivo
Conditions: male, SD, rat, plasma, po, 12 mg/kg, oral gavage 12 mg/kg, 4 h, mean of 7 rats, read-out: Blood drug concentration, Mean value
Give measured concentration at 4 h for each item. Keep answers brief.
Numbers only, in ng/mL.

compound	concentration at 4 h, ng/mL
CC(=O)[C@H]1CC[C@H]2[C@@H]3CC[C@H]4C[C@H](O[N+](=O)[O-])CC[C@]4(C)[C@H]3CC[C@]12C	244

Field: next compound
Task: // Input: CC(=O)[C@H]1CC[C@H]2[C@@H]3CC[C@H]4C[C@H](O)CC[C@]4(C)[C@H]3CC[C@]12C [Allopregnanolone, 5α-pregnan-3α-ol-20-one, reference compound] . Output its concentration at 4 h only.
Result: 0

----------
Assay: Pharmacokinetic analysis of oral administration to male rats
Type: in vivo
Conditions: male, SD, rat, plasma, po, 12 mg/kg, oral gavage 12 mg/kg, 4 h, individual rats 1-7, read-out: Blood drug concentration
property.name: concentration at 4 h (ng/mL)
Answers are plain numbers, in ng/mL.

Task: // Input: CC(=O)[C@H]1CC[C@H]2[C@@H]3CC[C@H]4C[C@H](O)CC[C@]4(C)[C@H]3CC[C@]12C [Allopregnanolone, 5α-pregnan-3α-ol-20-one, reference compound] . Output its concentration at 4 h only.
Result: 0
